Each recorded value in this set is attributed to ChEMBL document CHEMBL5291721.

- system: Amine oxidase [flavin-containing] A (Homo sapiens, UniProt P21397); further: assay procedure not described here
- Sequence (P21397 whole entry): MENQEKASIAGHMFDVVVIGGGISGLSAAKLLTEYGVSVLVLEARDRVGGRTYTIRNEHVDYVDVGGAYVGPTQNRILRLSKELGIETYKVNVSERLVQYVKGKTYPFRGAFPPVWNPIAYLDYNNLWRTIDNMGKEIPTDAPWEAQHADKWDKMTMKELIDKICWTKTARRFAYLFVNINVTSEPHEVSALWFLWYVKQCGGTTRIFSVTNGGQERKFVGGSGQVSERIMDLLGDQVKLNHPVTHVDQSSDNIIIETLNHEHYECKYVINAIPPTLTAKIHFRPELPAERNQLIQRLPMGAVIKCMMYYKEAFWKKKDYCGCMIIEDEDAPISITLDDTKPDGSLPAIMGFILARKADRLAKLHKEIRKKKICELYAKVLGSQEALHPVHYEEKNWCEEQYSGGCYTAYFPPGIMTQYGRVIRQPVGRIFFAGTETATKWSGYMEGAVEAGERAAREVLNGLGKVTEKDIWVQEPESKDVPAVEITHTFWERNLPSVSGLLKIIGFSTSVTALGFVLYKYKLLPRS
- Type: functional
measured_attribute: AC50

# molecule, result
measured = [
    ("O=C1[C@@H]2[C@H]3CC[C@H](C3)[C@@H]2C(=O)N1C[C@@H]1CCCC[C@H]1CN1CCN(c2nsc3ccccc23)CC1", "> 30 µM"),
    ("Cc1cn(-c2cc(NC(=O)c3ccc(C)c(Nc4nccc(-c5cnccn5)n4)c3)cc(C(F)(F)F)c2)cn1", "> 30 µM"),
    ("Cc1cccc(Nc2ccncc2S(=O)(=O)NC(=O)NC(C)C)c1 [TORSEMIDE]", "> 10 µM"),
    ("COC(=O)c1ccc2c(c1)NC(=O)/C2=C(\\Nc1ccc(N(C)C(=O)CN2CCN(C)CC2)cc1)c1ccccc1", "> 30 µM"),
    ("CCc1ccc(C(=O)C(C)CN2CCCCC2)cc1 (stereo unspecified)", "> 30 µM"),
    ("C[C@]12C=CC(=O)C=C1CC[C@@H]1[C@@H]2[C@@H](O)C[C@@]2(C)[C@H]1CC[C@]2(O)C(=O)CO", "> 10 µM"),
    ("OCCN(CCO)c1nc(N2CCCCC2)c2nc(N(CCO)CCO)nc(N3CCCCC3)c2n1", "> 30 µM"),
    ("CCC(=O)O[C@H](CC(=O)O)C[N+](C)(C)C [LEVOCARNITINE PROPIONATE]", "> 30 µM"),
    ("O=C(O)COC(=O)Cc1ccccc1Nc1c(Cl)cccc1Cl", "> 10 µM"),
    ("CC1(C)O[C@@H]2C[C@H]3[C@@H]4CCC5=CC(=O)C=C[C@]5(C)[C@@]4(F)[C@@H](O)C[C@]3(C)[C@]2(C(=O)CO)O1 [TRIAMCINOLONE ACETONIDE]", "> 30 µM"),
    ("Cc1cnc(Nc2ccc(OCCN3CCCC3)cc2)nc1Nc1cccc(S(=O)(=O)NC(C)(C)C)c1", "> 10 µM"),
    ("CCOC(=O)C1=C(C)NC(C)=C(C(=O)OC)C1c1cccc(Cl)c1Cl (stereo unspecified)", "> 10 µM"),
    ("CN(C)CCc1c[nH]c2ccc(CS(=O)(=O)N3CCCC3)cc12", "> 30 µM"),
    ("CC(C)CN(C[C@@H](O)[C@H](Cc1ccccc1)NC(=O)O[C@H]1CCOC1)S(=O)(=O)c1ccc(N)cc1", "> 10 µM"),
    ("CCC(=O)c1ccc2c(c1)N(CC(C)N(C)C)c1ccccc1S2 (stereo unspecified)", "> 10 µM"),
    ("O=C(O[C@H]1C[N+]2(CCCOc3ccccc3)CCC1CC2)C(O)(c1cccs1)c1cccs1 [ACLIDINIUM BROMIDE]", "> 10 µM"),
]
